Form field: composite z-score (one value per entry).
biological target: Epidermal growth factor receptor (Homo sapiens) (UniProt P00533); assay: EGFR binders on small-molecule microarrays, primary screen, biochemical, small-molecule microarray, 635 nm fluorescence (AID 1104); details: EGFR binding, higher = more signal;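 also: score merges 667 nm emission intensity with spot signal to noise over triplicate slides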
Sequence (P00533 whole entry, looked up): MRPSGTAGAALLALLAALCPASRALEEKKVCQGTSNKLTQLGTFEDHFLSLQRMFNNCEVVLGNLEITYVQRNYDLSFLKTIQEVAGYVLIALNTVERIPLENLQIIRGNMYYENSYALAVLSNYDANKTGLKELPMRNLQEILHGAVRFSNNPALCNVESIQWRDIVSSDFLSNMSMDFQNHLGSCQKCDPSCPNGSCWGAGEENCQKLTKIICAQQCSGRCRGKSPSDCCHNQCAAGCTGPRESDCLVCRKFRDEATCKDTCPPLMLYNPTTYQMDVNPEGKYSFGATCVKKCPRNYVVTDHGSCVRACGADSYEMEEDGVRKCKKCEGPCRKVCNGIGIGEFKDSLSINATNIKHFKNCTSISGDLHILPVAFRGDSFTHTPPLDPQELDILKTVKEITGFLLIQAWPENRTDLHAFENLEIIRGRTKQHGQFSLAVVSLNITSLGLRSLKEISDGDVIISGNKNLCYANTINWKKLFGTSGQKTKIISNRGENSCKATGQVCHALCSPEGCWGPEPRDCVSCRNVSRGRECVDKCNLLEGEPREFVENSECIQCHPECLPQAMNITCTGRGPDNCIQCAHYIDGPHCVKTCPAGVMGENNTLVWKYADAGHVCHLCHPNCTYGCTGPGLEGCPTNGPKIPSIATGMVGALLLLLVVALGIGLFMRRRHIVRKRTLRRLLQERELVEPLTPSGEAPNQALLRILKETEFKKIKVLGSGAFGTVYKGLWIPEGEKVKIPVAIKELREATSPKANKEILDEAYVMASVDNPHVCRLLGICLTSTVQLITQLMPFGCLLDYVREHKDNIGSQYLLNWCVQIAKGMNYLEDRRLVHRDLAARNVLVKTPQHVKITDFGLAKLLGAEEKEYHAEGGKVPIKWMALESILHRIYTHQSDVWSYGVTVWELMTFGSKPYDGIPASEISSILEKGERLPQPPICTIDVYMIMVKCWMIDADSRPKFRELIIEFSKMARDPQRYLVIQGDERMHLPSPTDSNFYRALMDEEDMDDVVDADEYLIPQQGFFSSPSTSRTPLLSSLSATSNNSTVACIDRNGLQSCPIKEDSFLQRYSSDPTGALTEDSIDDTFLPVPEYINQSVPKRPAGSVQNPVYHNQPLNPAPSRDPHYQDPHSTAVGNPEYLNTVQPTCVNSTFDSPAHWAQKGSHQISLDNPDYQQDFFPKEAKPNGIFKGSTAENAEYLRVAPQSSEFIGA
Number, no unit, nothing else.

Check out these entries, answers already filled in.
1. O=C1OCCC/C=C\[C@H]2OC34C=CCN(Cn5nnc6ccccc65)C(=O)[C@H]3N(CCCCCO)C(=O)[C@@H]4C12 (some centres not stated) :: -0.97
2. COc1ccc(NN2C(C(O)c3ccc(OC)c(OCc4ccccc4)c3)C=CC3C(=O)N(C4CCCCC4)C(=O)C32)cc1 (configuration not stated) :: 0.216
3. O=C(OCCF)C1=CCC(c2cccc(Cl)c2)O1 (configuration not stated) :: 0.119

I'm curious: which composite z-score was measured for CC(C)c1ccc(NN2C(C(O)c3c(F)cccc3Cl)C=CC3C(=O)N(c4ccccc4)C(=O)C32)cc1 (configuration not stated) tested on Epidermal growth factor receptor (Homo sapiens) (UniProt P00533)?
0.389

Same thing, different molecule: O=C1O[C@H](c2ccccc2)[C@H](c2ccccc2)N2[C@H]1[C@@H](C(=O)O)[C@]1(C(=O)Nc3ccc(C#CC4(O)CCCCCC4)cc31)[C@H]2c1ccc(OCCO)cc1
-0.329

Same thing, different molecule: C=CCNC(=O)[C@@H]1[C@H]2C(=O)O[C@H](c3ccccc3)[C@H](c3ccccc3)N2[C@H](c2ccc(OCCO)cc2)[C@@]12C(=O)Nc1ccccc12
0.254

Same thing, different molecule: O=C1OCCC=C[C@H]2OC34C=CCN(Cc5ccccc5)C(=O)[C@H]3N(CCCCCCO)C(=O)[C@@H]4C12 (some centres not stated)
-0.83

----------
assay: MM1S myeloma cell viability, profiling panel, resazurin fluorescence, basal, 24 h, PK04 Diversity Set (AID 1174); settings: higher = more signal, called active from +8 up or from −8 down;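 also: MM1S multiple myeloma cell line; test concentration not given here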
Calls of active or inactive are those of the source.
Form field: z-score (one value per entry).

Check out these entries, answers already filled in.
1. O=C1C[C@@](C(=O)NC2CC2)(c2ccc([N+](=O)[O-])cc2)[C@@H](c2ccc(CO)cc2)N1CC12CC3CC(CC(C3)C1)C2 :: -2.23 (inactive)
2. [N-]=[N+]=NCc1ccccc1[C@@H]1OC(c2ccc(OCCCO)cc2)=N[C@]1(Cc1ccccc1N=[N+]=[N-])C(=O)NCc1ccccc1 :: -0.0978 (inactive)
3. COc1ccc([Si](C)(C)[C@@H]2[C@@H](CC(=O)N(CCO)Cc3ccccc3)O[C@]3(C(=O)N(C)c4ccccc43)[C@H]2C)cc1 :: -1.64 (inactive)

Moving on to another molecule below.
Quick one: z-score for CCOC(=O)[C@H]1C[C@H]2O[C@@]23C[C@H]1C(=O)N1CCCC1[C@@H]3O[Si](C)(C)C(C)(C)C (some centres undefined) ?
-0.88 (inactive)

----------
molecular target: Neurogenic locus notch homolog protein 3 (Homo sapiens); test: NOTCH3 binders on small-molecule microarray, primary screen, biochemical, 635/667 nm fluorescence (AID 1096); settings: NOTCH3 binding, 635 nm fluorescence, higher = more signal
Answer not met if composite z-score is under 0.5, and met if it is 0.5 or more.

Answered cases to consult:
1) CCC(CC)C(O)C1C=CC2C(=O)N(c3ccccc3)C(=O)C2N1Nc1ccc(C#N)cc1 (stereo not drawn) :: met
2) O=C1C2C=CC(C(O)c3cccs3)N(Nc3ccccc3F)C2C(=O)N1c1ccccc1 (stereo not drawn) :: not met
3) Cc1ccc(S[C@]2(C(=O)NCCN3CCOCC3)CC(=O)N(Cc3cc(C(F)(F)F)cc(C(F)(F)F)c3)[C@@H]2c2ccc(CO)cc2I)cc1 :: not met
4) CC(C)C[C@@H]1NC(=O)[C@@H]2C[C@H](C(=O)NCCCCCC[N+](C)(C)C)[C@H](c3ccc(O)cc3)N2C1=O :: met
5) COC(=O)c1ccc(C(O)C2C=CC3C(=O)N(c4ccccc4)C(=O)C3N2Nc2ccc(C#N)cc2)o1 (stereo not drawn) :: met

Quick check, composite z-score >= 0.5? COc1ccc(C#Cc2ccc3c(c2)[C@]2(C(=O)N3)[C@H](C(=O)NC[C@H](O)c3ccccc3)[C@H]3C(=O)O[C@H](c4ccccc4)[C@H](c4ccccc4)N3[C@@H]2c2ccccc2OCCO)cc1
met

Same thing, different compound: CCOC(=O)C[C@H]1[C@H](OC(=O)Cc2ccc3c(c2)OCO3)[C@@H](NC(=O)c2ccc(-c3ccccc3)cc2)c2cc(OCCCO)ccc2N1C(=O)c1ccccc1
met

Same thing, different compound: Cc1ccc(S[C@]2(C(=O)NCC(C)C)CC(=O)N(Cc3ccccc3)[C@@H]2c2ccc(CO)cc2I)cc1
met

Same thing, different compound: CCCC[C@H]1OB(O)C[C@H]2C1=C(C)C[C@H]1C(=O)N(Cc3ccccc3)C(=O)[C@H]12
met

Same thing, different compound: Cc1c(NC(=O)CC#N)c(=O)n(-c2ccccc2)n1C
met

Same thing, different compound: C=CCC(OC(C)=O)[C@@H]1[C@@H](N(Cc2ccc(-c3cccc(C(F)(F)F)c3)o2)C(=O)c2ccc(C)cc2)c2cc(OCCCO)ccc2N1C(=O)c1ccc(-c2ccccc2)cc1 (stereo partly drawn)
not met
